# MEASURED_TARGET: T1, human PXR-GST (Invitrogen) (human, UniProt O75469 111-434, limits assumed)
# T1 construct: Captured on an anti-GST antibody chip; the whole natural protein is named; also called GST-PXR; GST-tagged PXR; not shown: GST tag
# T1 sequence (looked up): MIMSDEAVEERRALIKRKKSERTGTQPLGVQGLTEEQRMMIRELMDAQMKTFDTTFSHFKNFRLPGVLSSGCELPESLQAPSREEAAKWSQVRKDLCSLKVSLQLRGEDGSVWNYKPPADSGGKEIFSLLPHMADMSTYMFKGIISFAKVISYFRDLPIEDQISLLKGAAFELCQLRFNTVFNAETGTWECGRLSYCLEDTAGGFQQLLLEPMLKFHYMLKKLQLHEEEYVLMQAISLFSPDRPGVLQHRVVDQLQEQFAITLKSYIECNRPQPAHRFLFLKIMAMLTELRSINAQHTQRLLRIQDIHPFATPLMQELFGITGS
# ASSAY_COMMENT: SPR, Biacore T100; human PXR-GST captured on anti-GST antibody chip;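 further: binding rate constants and Kd derived from kinetic cycles using the Biacore T100 analysis software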
ASSAY_ENDPOINT: kon (M⁻¹ s⁻¹)
Use M⁻¹ s⁻¹ as the unit, but write only the number.

Req: Quick one: give measured kon for Adnectin-1 (designed binder, Isolated from an NP1 library; purified by Ni-agarose) MASTSGSTHYYKGTADLEVVAATPTSLLISWPPPYYVEGVTVFRITYGETGGNSPVQEFTVPYWTETATISGLKPGVDYTITVYAEMYPGSPWAGQVMDIQPISINYRTEGSGSHHHHHH
Resp: 104000

Req: Answer with the recorded kon for the binder listed here: Adnectin-4 (designed binder) MASTSGVSDVPRDLEVVAATPTSLLISWDAPAVTVHSYYITYQELQHHSVPQGFQVPGSKSTATISGLKPGVAYQIAVYAFTGPGLPPSDAPPIVIYYRTEGSGSHHHHHH
Resp: 21500

Req: Report measured kon; entry is Adnectin-7 (designed binder) MGVSDVPRDLEVVTATPTSLLISWDGPKYYVKYYRITYGETGGNSPVQEFTVPRTDHTATISGLKPGVDYTITVYAVKGQYGPYYGSRPISINYRTEIDKPSQHHHHHH
Resp: 288000

Req: Give a short answer stating reported kon for Adnectin-3 (designed binder) MASTSGVSDVPRDLEVVAATPTSLLISWDAPAVPVSKYVIYYWPGALISSMQAFKVPGSKSTATISGLKPGVLYSIVVDALTGDGQGSYVWDPITITYRTEGSGSHHHHHH .
Resp: 162000

These measurements were taken from patent US20130245238A1.
